- target: Sushi domains (SD1/2) protein of GABAB1a (GB1a)
- Sequence (Q9Z0U4 29-158): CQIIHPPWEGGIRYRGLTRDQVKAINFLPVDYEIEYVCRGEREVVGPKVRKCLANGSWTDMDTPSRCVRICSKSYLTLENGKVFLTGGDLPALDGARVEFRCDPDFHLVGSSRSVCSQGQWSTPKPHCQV
- method.notes: FP competition vs TAMRA AJAP-1probe
pKi: −log10 of the molar value. Non-standard residues stand in square brackets, D forms with d. Sar = CNCC(=O)O
Some binders, each annotated with its measured pKi.
property.label: pKi

binder | assay.result
Ac-EDDDWIDWYDSDDDEAAAKRRRRRRRR-NH2 [16-RL-R8] | 7.00
Ac-ETEFIAWGPTGYED-NH2 | 7.39
Ac-RTEFIAWGPTGDED-NH2 | 7.06
Ac-EDDYIDWGPTSDDD-NH2 [peptide 19] | 8.42
Ac-PWAIVWG[Sar]TVSRED-NH2 (SMILES CC[C@H](C)[C@H](NC(=O)[C@H](C)NC(=O)[C@H](Cc1c[nH]c2ccccc12)NC(=O)[C@@H]1CCCN1C(C)=O)C(=O)N[C@H](C(=O)N[C@@H](Cc1c[nH]c2ccccc12)C(=O)NCC(=O)N(C)CC(=O)N[C@H](C(=O)N[C@H](C(=O)N[C@@H](CO)C(=O)N[C@@H](CCCNC(=N)N)C(=O)N[C@@H](CCC(=O)O)C(=O)N[C@@H](CC(=O)O)C(N)=O)C(C)C)[C@@H](C)O)C(C)C) [PWAIVWG(N-Me-G)TVSRED] | 6.28
Ac-EDDDWIDWGPTSDDDRRRRRRRR-NH2 [17-R8] | 6.91
Ac-EDDDWIDWYDSDDDRRRRRRRR-NH2 [16-R8] | 7.19
Ac-RRRREDDDWIDWGPTSDDD-NH2 [4R-17] | 7.82
Ac-RRRREDDDWIDWYDSDDD-NH2 [4R-16] | 7.69
Ac-ETEFIAWGPSGDED-NH2 | 7.49
Ac-ETEFIAWGPTGDEV-NH2 | 7.40
Ac-ETEFIAWGPTRDED-NH2 | 7.49

// provenance: patent US20260193293A1
